Attribution: ChEMBL document CHEMBL1145302

tested on: Streptococcus pneumoniae; assay: Antibacterial activity against erythromycin-resistant Streptococcus pneumoniae OC4051 containing erm(B); type: functional
Measure Name: MIC (µg/mL)

Compound Structure String	System Name	Limit Sign	Value Measured
CC[C@H]1OC(=O)[C@H](C)C(=O)[C@H](C)[C@@H](O[C@@H]2O[C@H](C)C[C@H](N(C)C)[C@H]2O)[C@](C)(OC(=O)NN(CC)CCc2ccc(-c3ncccn3)cc2)C[C@@H](C)C(=O)[C@H](C)[C@H]2NC(=O)O[C@@]21C	Streptococcus pneumoniae	=	0.12
CC[C@H]1OC(=O)[C@H](C)C(=O)[C@H](C)[C@@H](O[C@@H]2O[C@H](C)C[C@H](N(C)C)[C@H]2O)[C@](C)(OC(=O)NN(C)Cc2ccc(-c3ncccn3)cc2)C[C@@H](C)C(=O)[C@H](C)[C@H]2NC(=O)O[C@@]21C	Streptococcus pneumoniae	=	0.5
CC[C@H]1OC(=O)[C@H](C)C(=O)[C@H](C)[C@@H](O[C@@H]2O[C@H](C)C[C@H](N(C)C)[C@H]2O)[C@](C)(OC(=O)NN(C)CCc2ccc(-c3cnccn3)cc2)C[C@@H](C)C(=O)[C@H](C)[C@H]2NC(=O)O[C@@]21C	Streptococcus pneumoniae	=	0.06
CC[C@H]1OC(=O)[C@H](C)C(=O)[C@H](C)[C@@H](O[C@@H]2O[C@H](C)C[C@H](N(C)C)[C@H]2O)[C@](C)(OC(=O)NN(C)CCc2ccc(-c3ncco3)cc2)C[C@@H](C)C(=O)[C@H](C)[C@H]2NC(=O)O[C@@]21C	Streptococcus pneumoniae	=	0.06
CC[C@H]1OC(=O)[C@H](C)C(=O)[C@H](C)[C@@H](O[C@@H]2O[C@H](C)C[C@H](N(C)C)[C@H]2O)[C@](C)(OC(=O)NN(C)CCc2ccc(-c3ncccn3)s2)C[C@@H](C)C(=O)[C@H](C)[C@H]2NC(=O)O[C@@]21C	Streptococcus pneumoniae	=	0.06
CC[C@H]1OC(=O)[C@H](C)C(=O)[C@H](C)[C@@H](O[C@@H]2O[C@H](C)C[C@H](N(C)C)[C@H]2O)[C@](C)(OC(=O)NN(C)C/C=C/c2ccc(-c3ncccn3)cc2)C[C@@H](C)C(=O)[C@H](C)[C@H]2NC(=O)O[C@@]21C	Streptococcus pneumoniae	=	0.25
CC[C@H]1OC(=O)[C@H](C)C(=O)[C@H](C)[C@@H](O[C@@H]2O[C@H](C)C[C@H](N(C)C)[C@H]2O)[C@](C)(OC(=O)NN(C)CCCc2ccc(-c3ncccn3)cc2)C[C@@H](C)C(=O)[C@H](C)[C@H]2NC(=O)O[C@@]21C	Streptococcus pneumoniae	=	0.5
CC[C@H]1OC(=O)[C@H](C)[C@@H](O[C@H]2C[C@@](C)(OC)[C@@H](O)[C@H](C)O2)[C@H](C)[C@@H](O[C@@H]2O[C@H](C)C[C@H](N(C)C)[C@H]2O)[C@](C)(O)C[C@@H](C)C(=O)[C@H](C)[C@@H](O)[C@]1(C)O	Streptococcus pneumoniae	>	16
CC[C@H]1OC(=O)[C@H](C)C(=O)[C@H](C)[C@@H](O[C@@H]2O[C@H](C)C[C@H](N(C)C)[C@H]2O)[C@](C)(OC(=O)NNCCc2cnc3ccccc3c2)C[C@@H](C)C(=O)[C@H](C)[C@H]2NC(=O)O[C@@]21C	Streptococcus pneumoniae	=	0.06
CC[C@H]1OC(=O)[C@H](C)C(=O)[C@H](C)[C@@H](O[C@@H]2O[C@H](C)C[C@H](N(C)C)[C@H]2O)[C@](C)(OC(=O)NN(C)CCc2ccc(-c3ncccn3)cc2F)C[C@@H](C)C(=O)[C@H](C)[C@H]2NC(=O)O[C@@]21C	Streptococcus pneumoniae	=	0.06
CC[C@H]1OC(=O)[C@H](C)C(=O)[C@H](C)[C@@H](O[C@@H]2O[C@H](C)C[C@H](N(C)C)[C@H]2O)[C@](C)(OC(=O)NNCCc2ccc(-c3ncccn3)cc2)C[C@@H](C)C(=O)[C@H](C)[C@H]2NC(=O)O[C@@]21C	Streptococcus pneumoniae	=	0.12
CC[C@H]1OC(=O)[C@H](C)C(=O)[C@H](C)[C@@H](O[C@@H]2O[C@H](C)C[C@H](N(C)C)[C@H]2O)[C@](C)(OC)C[C@@H](C)C(=O)[C@H](C)[C@H]2N(CCCCn3cnc(-c4cccnc4)c3)C(=O)O[C@]12C	Streptococcus pneumoniae	=	0.06
CC[C@H]1OC(=O)[C@H](C)C(=O)[C@H](C)[C@@H](O[C@@H]2O[C@H](C)C[C@H](N(C)C)[C@H]2O)[C@](C)(OC(=O)NNCCc2ccc(-c3cnccn3)cc2)C[C@@H](C)C(=O)[C@H](C)[C@H]2NC(=O)O[C@@]21C	Streptococcus pneumoniae	=	0.06
CC[C@H]1OC(=O)[C@H](C)C(=O)[C@H](C)[C@@H](O[C@@H]2O[C@H](C)C[C@H](N(C)C)[C@H]2O)[C@](C)(OC(=O)N(C)N(C)CCc2ccc(-c3cnccn3)cc2)C[C@@H](C)C(=O)[C@H](C)[C@H]2NC(=O)O[C@@]21C	Streptococcus pneumoniae	=	0.5
CC[C@H]1OC(=O)[C@H](C)C(=O)[C@H](C)[C@@H](O[C@@H]2O[C@H](C)C[C@H](N(C)C)[C@H]2O)[C@](C)(OC(=O)NN(C)CCc2cnc3ccccc3c2)C[C@@H](C)C(=O)[C@H](C)[C@H]2NC(=O)O[C@@]21C	Streptococcus pneumoniae	=	0.12
CC[C@H]1OC(=O)[C@H](C)C(=O)[C@H](C)[C@@H](O[C@@H]2O[C@H](C)C[C@H](N(C)C)[C@H]2O)[C@](C)(OC(=O)NN(C)CCc2ccc(-c3ncccn3)cc2)C[C@@H](C)C(=O)[C@H](C)[C@H]2NC(=O)O[C@@]21C	Streptococcus pneumoniae	=	0.06
